Task for the reader: assign each of the following molecules its reported IC50.
measurement_target: human histamine 4 receptor (hH4R) (Homo sapiens (Human), UniProt Q9H3N8)
Sequence (Q9H3N8 whole entry): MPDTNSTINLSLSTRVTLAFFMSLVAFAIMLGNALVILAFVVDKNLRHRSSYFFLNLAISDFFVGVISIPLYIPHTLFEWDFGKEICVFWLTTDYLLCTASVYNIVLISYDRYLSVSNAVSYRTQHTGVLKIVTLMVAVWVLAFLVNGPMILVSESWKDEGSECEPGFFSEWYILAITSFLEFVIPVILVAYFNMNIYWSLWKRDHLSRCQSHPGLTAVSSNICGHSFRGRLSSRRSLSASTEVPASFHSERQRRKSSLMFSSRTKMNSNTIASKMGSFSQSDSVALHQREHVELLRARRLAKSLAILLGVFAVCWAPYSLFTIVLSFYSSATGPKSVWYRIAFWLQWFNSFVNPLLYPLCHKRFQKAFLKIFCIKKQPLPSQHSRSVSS
test_summary: Binding affinity of human histamine 4 receptor (hH4R), [3H] labeled histamine displacement
applied_conditions: hH4R-overexpressed cell membrane, [3H] histamine
Please respond with the number in µM and leave the unit unwritten.

Exercise: Value lookup for IC50; key = CN1C[C@@H]2C[C@H]1CN2c1nc2ncc(Cl)cc2n2cnnc12 [Compound 78]
Key: 0.43

Exercise: Item CNC1CN(c2nc3ccc(Cl)nc3n3cnnc23)C1 [Compound 116] has what recorded IC50?
Key: 0.24

Exercise: What value of measured IC50 is listed for CNC1CN(c2nc3ncc(Br)c(C)c3n3cnnc23)C1 [Compound 65] ?
Key: 0.73

Exercise: Which IC50 reading was recorded for the molecule CNC1CN(c2nc3ncc(Cl)cc3n3ccnc23)C1 [Compound 88] ?
Key: 0.26

Exercise: // query IC50 value for entry CN1CCN(c2nc3ncc(C(F)(F)F)cc3n3cnnc23)CC1 [Compound 53]
Key: 0.28

Exercise: Field request: IC50 | item: CNC1CN(c2nc3ncc(OC(F)F)cc3n3cnnc23)C1 [Compound 59]
Key: 0.89

Exercise: # query: IC50 of entry CNC1CN(c2nc3ncc(Br)cc3n3nnnc23)C1.Cl [Compound 69, hydrochloride]
Key: 0.035

Exercise: Can you look up the measured IC50 of CNC1CN(c2nc3ncc(I)cc3n3cnnc23)C1 [Compound 48] for me?
Key: 0.065

Exercise: Param item = CN1CCN(c2nc3ncc(I)cc3n3cnnc23)CC1 [Compound 49] ; retrieve measured IC50.
Key: 0.034

Exercise: Dear colleague, I am looking for the recorded IC50 of the following molecule: Cc1nc2nc(N3CCN(C)CC3)c3nncn3c2cc1Br [Compound 100]
Key: 0.231
